System: HEK-293T
Test: Incucyte cell viability with HEK293T; note: filed as whole numbers so only -1 and 0 and 1 occur
Type: toxicity, cell-based
Conditions: human, 12 h, 10 µM, compound concentration 10 uM, replicate number 2, timepoint 12 hours
Measured Quantity: Growth Rate

INSERT INTO measurements (compound, measured_quantity, reported_value) VALUES
  ('O=C(O)Cn1c(C(=O)Nc2nc(-c3ccccc3Cl)cs2)cc2ccccc21', 'Growth Rate', 0),
  ('COCCOc1nc(-c2ccc(Cl)nc2)nc2c1CN(C(=O)c1ncn3ccccc13)CC2', 'Growth Rate', 0),
  ('Cc1noc([C@H]2C[C@@H](c3ccc(C(F)(F)F)cc3)CN(C(=O)N3CCS(=O)(=O)C3)C2)n1', 'Growth Rate', 1),
  ('O=C(N[C@@H](C1CC1)C(F)(F)F)c1cc(-c2cnn3cc(-c4ccc(F)cc4)cnc23)cs1', 'Growth Rate', 1),
  ('Cc1cc([C@@H](C)Nc2ccccc2C(=O)O)c2nc(N3CCOCC3)cc(=O)n2c1', 'Growth Rate', 1),
  ('Cc1csc(NC(=O)c2cc(F)cc(Oc3cncnc3)c2)n1', 'Growth Rate', 1),
  ('CC(C)N(CCCNC(=O)Nc1ccc(C(C)(C)C)cc1)C[C@H]1O[C@@H](n2cc(Br)c3c(N)ncnc32)[C@H](O)[C@@H]1O', 'Growth Rate', 0),
  ('CC(C)(C)NC[C@H](O)COc1nsnc1N1CCOCC1', 'Growth Rate', 1),
  ('Nc1ncnc2c1ccn2[C@@H]1O[C@H]([C@H](O)c2ccccc2)[C@@H](O)[C@H]1O', 'Growth Rate', 1),
  ('COc1cc(C(=O)NS(=O)(=O)c2ccccc2C)ccc1Cc1cn(C)c2ccc(NC(=O)OC3CCCC3)cc12', 'Growth Rate', 0),
  ('O=C(NCC(=O)N1CCCC1)Nc1ccc2cnccc2c1', 'Growth Rate', 0),
  ('C[C@H](N)COC(=O)[C@@H](CCCCN)NC(=O)Cc1c(-c2ccc3ccccc3c2)[nH]c2c1ccc1ccccc12', 'Growth Rate', 0),
  ('O=C1CCc2cc(Nc3cc(OC4CCOCC4)c([N+](=O)[O-])cc3Cl)ccc2N1', 'Growth Rate', 1),
  ('Cc1cc(C(C)(C)C)c(O)c(C)c1CC1=NCCN1.Cl [OXYMETAZOLINE HYDROCHLORIDE]', 'Growth Rate', 0),
  ('C[C@H](c1ccc(F)cc1)N(Cc1cccc(C(=O)O)c1)C(=O)c1cnc2ccccc2c1', 'Growth Rate', 0),
  ('O=C(NCc1ncc(C(F)(F)F)cc1Cl)c1ccc2c(c1)C1(CCS(=O)(=O)CC1)[C@@H](C1CC1)N2S(=O)(=O)c1ccc(F)cc1', 'Growth Rate', 1);

----------
System: U2OS
Assay: Multiplex assay against U2OS
Format: toxicity, cell-based
Conditions: human, 24 h, 1 µM, compound concentration 1 uM, replicate 2
Returns one of Condition met or Condition not met; Condition met when Total Cell Count is >= 70.

INSERT INTO measurements (compound, target_of_assay, category) VALUES
  ('O=c1[nH]c2ccccc2n1C1CCN(Cc2ccc(-c3[nH]c4cc5ncnc5cc4nc3-c3ccccc3)cc2)CC1', 'U2OS', 'Condition met'),
  ('C=CC(=O)Nc1cccc(Sc2nc(Nc3ccc(N4CCN(C)CC4)cc3)ncc2Cl)c1', 'U2OS', 'Condition met'),
  ('CC(C)NC(=O)N1CC[C@H](NC2=Nc3cc(F)ccc3N(CC(F)F)c3ccc(Cl)cc32)C1', 'U2OS', 'Condition met'),
  ('COc1ccc(-c2ccc3ncc4c(c3c2)n(-c2ccc(N3CCNCC3)c(C(F)(F)F)c2)c(=O)n4C)cn1.O=C(O)/C=C\C(=O)O', 'U2OS', 'Condition not met'),
  ('CC(C)CC(=O)Nc1[nH]nc2c1CN(C(=O)C1CCN(C)CC1)C2(C)C', 'U2OS', 'Condition met'),
  ('Cc1cccc(CN2CCN(C(c3ccccc3)c3ccc(Cl)cc3)CC2)c1.Cl.Cl (stereo not drawn)', 'U2OS', 'Condition not met');

----------
Tested on: Fibroblast
Experiment: Multiplex assay against human fibroblast
Assay type: toxicity, cell-based
Settings: 24 h, 10 µM, compound concentration 10 uM, replicate 2
# Population Fragmented Nuclei (%) per record follows
Measured Quantity: Population Fragmented Nuclei (%)

INSERT INTO assay_data (compound, measured_quantity, u, reported_value) VALUES
  ('CCCSc1nc(N[C@@H]2C[C@H]2c2ccc(F)c(F)c2)c2nnn([C@@H]3C[C@H](OCCO)[C@@H](O)[C@H]3O)c2n1', 'Population Fragmented Nuclei (%)', '%', 7),
  ('CC(C)Oc1ccccc1C(=O)Nc1ccccc1C(=O)Nc1cccc(S(=O)(=O)C(F)(F)F)c1', 'Population Fragmented Nuclei (%)', '%', 17),
  ('COc1ccccc1CN[C@H]1C2CCN(CC2)[C@H]1C(c1ccccc1)c1ccccc1', 'Population Fragmented Nuclei (%)', '%', 2),
  ('O=c1[nH]c2ccccc2n1C1CCN(Cc2ccc(-c3[nH]c4cc5ncnc5cc4nc3-c3ccccc3)cc2)CC1', 'Population Fragmented Nuclei (%)', '%', 40),
  ('Cl.O=C(O)c1cc(-c2ccc(C3CCNCC3)cc2)c2ccc(-c3ccc(C(F)(F)F)cc3)cc2c1', 'Population Fragmented Nuclei (%)', '%', 17),
  ('Cc1nc(N2CC[C@H](O)C2)ncc1-c1cc(C(F)(F)F)cc2[nH]ncc12', 'Population Fragmented Nuclei (%)', '%', 67),
  ('CC(C)OC(=O)N1CCC(Oc2ncnc3c2cnn3-c2ccc(S(C)(=O)=O)cc2F)CC1', 'Population Fragmented Nuclei (%)', '%', 5),
  ('COc1cc(Nc2nccc(-c3cnn4nc(OC)ccc34)n2)cc(C(F)(F)F)c1', 'Population Fragmented Nuclei (%)', '%', 26),
  ('C=CC(=O)Nc1ccc2[nH]c(=O)n(C3CCN(Cc4ccc(-c5nc6cc[nH]c(=O)c6cc5-c5ccccc5)cc4)CC3)c2c1', 'Population Fragmented Nuclei (%)', '%', 55),
  ('CC(C)NC(=O)N1CC[C@H](NC2=Nc3cc(F)ccc3N(CC(F)F)c3ccc(Cl)cc32)C1', 'Population Fragmented Nuclei (%)', '%', 13),
  ('CC1=C(C(=O)Nc2cc3cn[nH]c3cc2F)C(c2ccc(C(F)(F)F)cc2)CC(=O)N1 (centres undefined)', 'Population Fragmented Nuclei (%)', '%', 23),
  ('O=c1cc(N2CCOCC2)oc2c(-c3cccc4c3sc3ccccc34)cccc12', 'Population Fragmented Nuclei (%)', '%', 14),
  ('Cc1ccccc1C(c1ccccc1C)N1C2CCC1CC(O)(c1ccccc1)C2 (centres undefined)', 'Population Fragmented Nuclei (%)', '%', 20),
  ('Cc1cccc(CN2CCN(C(c3ccccc3)c3ccc(Cl)cc3)CC2)c1.Cl.Cl (centres undefined)', 'Population Fragmented Nuclei (%)', '%', 10),
  ('CN1CCN(Cc2ccc(Nc3ncc(Cl)c(Nc4ccccc4S(=O)(=O)N(C)C)n3)cc2)CC1', 'Population Fragmented Nuclei (%)', '%', 30),
  ('CC(C)(C)NC[C@H](O)COc1nsnc1N1CCOCC1', 'Population Fragmented Nuclei (%)', '%', 7),
  ('CCc1ccc(OCc2ccccc2C(=O)Nc2ccc3nc(C)cc(N)c3c2)cc1.Cl', 'Population Fragmented Nuclei (%)', '%', 15),
  ('COc1ccc(-c2ccc3ncc4c(c3c2)n(-c2ccc(N3CCNCC3)c(C(F)(F)F)c2)c(=O)n4C)cn1.O=C(O)/C=C\C(=O)O', 'Population Fragmented Nuclei (%)', '%', 79),
  ('CNC(=O)Nc1ccc(-c2nc(N3CC4CCC(C3)O4)c3cnn(C4CCC5(CC4)OCCO5)c3n2)cc1', 'Population Fragmented Nuclei (%)', '%', 8);

----------
Test system: Fibroblast
Experiment: Multiplex assay against human fibroblast
Type: toxicity, cell-based
Conditions: 24 h, 10 µM, compound concentration 10 uM, replicate 2
Returns one of fulfilled or not fulfilled; fulfilled when Population Tubulin-Different-Phenotype (%) is >= 60%.

INSERT INTO results (compound, category) VALUES
  ('CNC(=O)Nc1ccc(-c2nc(N3CC4CCC(C3)O4)c3cnn(C4CCC5(CC4)OCCO5)c3n2)cc1', 'fulfilled'),
  ('Cc1c[nH]c2nccc(Oc3c(F)cc(Nc4cc(Cl)nc(N)n4)cc3F)c12 [BAY-549]', 'not fulfilled'),
  ('Cl.O=C(O)c1cc(-c2ccc(C3CCNCC3)cc2)c2ccc(-c3ccc(C(F)(F)F)cc3)cc2c1', 'not fulfilled'),
  ('Cc1ccc2c(c1)c1c(n2CCc2ccc(C)nc2)CCN(C)C1 [LATREPIRDINE]', 'fulfilled'),
  ('CCC1=C[C@@H]2C[N@](C1)Cc1c([nH]c3ccccc13)[C@@](C(=O)OC)(c1cc3c(cc1OC)N(C)[C@H]1[C@@](O)(C(=O)OC)[C@H](OC(C)=O)[C@]4(CC)C=CCN5CC[C@]31[C@@H]54)C2.O=C(O)C(O)C(O)C(=O)O.O=C(O)C(O)C(O)C(=O)O [VINORELBINE TARTRATE]', 'not fulfilled'),
  ('CCc1ccc(OCc2ccccc2C(=O)Nc2ccc3nc(C)cc(N)c3c2)cc1.Cl', 'fulfilled');
